test system: NCI-H322M; test: NCI-60 five-dose assay (non-small cell lung cancer); assay type: cell-based, human; conditions: Homo sapiens, 48 h, SRB, read-out: LC50 (the source's name)
Answer each item with its documented CC50.

Request: What CC50 value was documented for this molecule, "CCOc1ccccc1NC1=C(Cl)C(=O)c2nc(C)ccc2C1=O" ?
Response: 29.7 µM

Request: What CC50 value was documented for this molecule, "COc1ccccc1NC1=C(Cl)C(=O)c2nc(C)ccc2C1=O" ?
Response: 27.6 µM

Request: What CC50 value was documented for this molecule, "CCOc1ccc(NC2=C(Cl)C(=O)c3nc(C)ccc3C2=O)cc1" ?
Response: 8.29 µM

Request: What CC50 value was documented for this molecule, "COc1cc(NC2=C(Cl)C(=O)c3nc(C)ccc3C2=O)cc(OC)c1" ?
Response: 35.8 µM
